assay: chemical genetic growth profiling, strain panel (AID 1159580);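 note: tested at 20 µM; growth read once vehicle control cultures reached saturation at 30 °C; 1 = growth at the plate median or of vehicle wells; lower values mean less growth of the strain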; conditions: S. cerevisiae deletion strains, growth OD, locus YDR335W, strain msn5, stronger effect = lower value
The whole screen tested about 5,500 compounds, of which about 2,000 (36%) were called active. Roughly 18% stayed inconclusive and do not appear here. The list shows a part of the results.
Task for the reader: assign each of the following compounds its reported normalized growth.

compound: COC1=C[C@@H]2[C@@H]3Cc4ccc(OC)c(O)c4[C@]2(CCN3C)CC1=O
normalized growth: 0.986 (inactive)
--
compound: CCN1C[C@]2(OC(=O)c3ccccc3NC(C)=O)CCC(OC)[C@]34C1[C@H](CC23)[C@@]1(O)CC(OC)[C@H]2CC4C1(O)[C@H]2OC (some centres not stated)
normalized growth: 0.958 (inactive)
--
compound: COc1c(-c2coc3cc4c(cc3c2=O)CC(O)C(C)(C)O4)ccc2c1C=CC(C)(C)O2 (configuration not stated)
normalized growth: 0.974 (inactive)
--
compound: COc1cccc2c1C(=O)c1c(O)c3c(c(O)c1C2=O)C[C@@](O)(C(=O)CO)C[C@@H]3OC1C[C@H](N)[C@H](O)[C@H](C)O1 (some centres not stated)
normalized growth: 0.431 (active)
--
compound: CCOP(=S)(OCC)Oc1nc(Cl)c(Cl)cc1Cl
normalized growth: 0.973 (inactive)
--
compound: Nc1ccc(S(=O)(=O)Nc2ccnn2-c2ccccc2)cc1
normalized growth: 0.998 (inactive)

Would you mind giving normalized growth for every compound in the list below?
1. COc1cc(C(=O)NCCCCCC(=O)O)cc(OC)c1OC
2. N#CC(O[C@@H]1O[C@H](CO[C@@H]2O[C@H](CO)[C@@H](O)[C@H](O)[C@H]2O)[C@@H](O)[C@H](O)[C@H]1O)c1ccccc1 (some centres not stated)

1: 0.975 (inactive); 2: 0.988 (inactive)

I'm hoping you can list normalized growth for every compound here, please.
1. NCCC(=O)N[C@@H](Cc1cnc[nH]1)C(=O)O
2. C/C=C1\[C@H]2C=C(C)C[C@]1(N)c1ccc(=O)[nH]c1C2
3. CC(=O)/C=C\[C@@H]1[C@@]2(C)CCCC(C)(C)C2CC[C@@]1(C)O (some centres not stated)
4. Cc1ccc(S(=O)(=O)NC(=O)NN2CC3CCCC3C2)cc1 (configuration not stated)
5. Cc1cc(C(C)(C)C)c(O)c(C(C)(C)C)c1
6. COC(=O)Nc1nc2ccc(Sc3ccccc3)cc2[nH]1
7. Cc1cn([C@H]2C[C@H](N=[N+]=[N-])[C@@H](CO)O2)c(=O)[nH]c1=O

1.01 (inactive)
1.02 (inactive)
0.981 (inactive)
0.979 (inactive)
0.989 (inactive)
1 (inactive)
0.984 (inactive)

List reported normalized growth for each of these compounds:
1. Nc1ccc(S(=O)(=O)c2ccc(N)cc2)cc1
2. COC(=O)Nc1nc2ccc(C(=O)c3ccccc3)cc2[nH]1

1. 1 (inactive)
2. 0.99 (inactive)

###

assay: chemical genetic growth profiling, strain panel (AID 1159580);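 note: tested at 20 µM; growth read once vehicle control cultures reached saturation at 30 °C; 1 = growth at the plate median or of vehicle wells; lower values mean less growth of the strain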; details: S. cerevisiae deletion strains, growth OD, locus YOR144C, strain elg1, stronger effect = lower value
In all, about 5,500 compounds went through this assay and about 2,000 (36%) were called active. Not shown: some 18% with an inconclusive outcome. The list shows a part of the results.
reportedMetric: normalized growth
Numbers only.

Hi! Can you tell me normalized growth for each of these compounds?
1. Cc1cn([C@H]2C[C@H](N=[N+]=[N-])[C@@H](CO)O2)c(=O)[nH]c1=O
2. CO[C@@]12[C@@H]3NC3CN1C1=C(C(=O)C(N)=C(C)C1=O)[C@@H]2COC(N)=O (some centres not stated)
3. CC(=O)O[C@@H]1CC[C@@]2(C)C(CC[C@]3(C)C2CC=C2C4CC(C)(C)CC[C@]4(C(=O)O)CC[C@]23C)C1(C)C (some centres not stated)
4. O=C(O)/C=C1\CCCc2ccccc2C1O (configuration not stated)
5. Cc1cc(O)cc(O)c1C(=O)O

1. 1.01
2. 0.985
3. 0.981
4. 0.991
5. 0.996
